system: CYP2B6; assay: CYP gene expression in human hepatocytes; format: in vitro ADME; conditions: human, cryopreserved primary human hepatocytes
quantityKind: fold induction at 72 h, 3.33 μM
One number for each entry.

input: Given C[C@@H]1CCO[C@H]2Cn3cc(C(=O)NCc4ccc(F)cc4F)c(=O)c(O)c3C(=O)N12 , state its recorded fold induction at 72 h, 3.33 μM.
output: 2.2

* * *

tested on: CYP1A2; experiment: CYP gene expression in human hepatocytes; format: in vitro ADME; conditions: human, cryopreserved primary human hepatocytes
quantityKind: fold induction at 72 h, 1 mM
One number for each entry.

input: Given CCC1(c2ccccc2)C(=O)NC(=O)NC1=O [phenobarbital] , state its recorded fold induction at 72 h, 1 mM.
output: 2.7
